Tested on: NCI-H460 lung
Test: NCI tumour cell line growth inhibition, 48 h
Form field: TGI (one value per entry).

compound	target-or-test-system	TGI
COc1cc(Br)c(CC2(C#N)c3ccccc3C3C(N2C(=O)c2ccccc2)C3(Cl)Cl)cc1OC (stereo unspecified)	NCI-H460 lung	> 65.5 µM
CCCCCCCCCCCCCCCCOCC(CN(C)CCN(C)C)OCCCCCCCCCCCCCCCC (stereo unspecified)	NCI-H460 lung	> 100 µM
CCOC(=O)CC(=O)C(=O)NNC1=NCCN1	NCI-H460 lung	> 100 µM
CCOC(=O)C[C@@H](C)[C@]1(C(=O)OC)CCCC1=O	NCI-H460 lung	> 100 µM

Please look at the following compound next.
Dear colleague, I am looking for the recorded TGI of the following compound: CC(C)CC1C(=O)N2CCC[C@H]2C2(O)O[C@](NC(=O)C3C=C4c5cccc6[nH]c(Br)c(c56)C[C@H]4N(C)C3)(C(C)C)C(=O)N12 (stereo partly specified)
> 100 µM
